- TESTED SYSTEM: recombinant full-length human BTK kinase (Homo sapiens)
- Construct: recombinant full-length human BTK kinase with a (His)6 tag; (His)6
- Sequence (Q06187 whole entry): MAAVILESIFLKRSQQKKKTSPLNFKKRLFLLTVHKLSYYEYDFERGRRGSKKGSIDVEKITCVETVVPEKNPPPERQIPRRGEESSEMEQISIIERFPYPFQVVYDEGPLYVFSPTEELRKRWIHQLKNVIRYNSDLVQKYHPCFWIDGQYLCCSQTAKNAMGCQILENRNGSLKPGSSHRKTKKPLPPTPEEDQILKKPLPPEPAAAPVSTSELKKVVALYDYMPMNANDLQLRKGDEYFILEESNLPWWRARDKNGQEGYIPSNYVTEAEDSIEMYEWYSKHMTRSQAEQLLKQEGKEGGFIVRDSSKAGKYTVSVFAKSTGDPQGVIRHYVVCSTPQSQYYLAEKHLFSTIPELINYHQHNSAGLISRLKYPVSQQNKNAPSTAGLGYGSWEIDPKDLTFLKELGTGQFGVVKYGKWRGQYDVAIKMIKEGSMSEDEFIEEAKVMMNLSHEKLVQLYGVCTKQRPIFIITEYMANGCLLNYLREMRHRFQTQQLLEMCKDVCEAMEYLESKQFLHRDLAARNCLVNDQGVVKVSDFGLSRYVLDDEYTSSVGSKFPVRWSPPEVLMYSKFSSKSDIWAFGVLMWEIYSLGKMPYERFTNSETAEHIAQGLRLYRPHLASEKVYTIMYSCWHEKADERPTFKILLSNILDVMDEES
- PROTOCOL SUMMARY: BTK kinase assay: ADP generation assay (ADP-Glo)
- CONDITIONS: 60 nM BTK, MBP substrate, 60 min
- Experimental: The primary assay for compound inhibitory activity was the ADP generation assay described herein. […] Luminescence was measured on an EnVision microplate reader (PerkinElmer). The amount of luminescence from each reaction is directly correlated with BTK kinase activity. Percent inhibition and IC50 values were calculated by comparing enzyme activity in drug-treated wells to the appropriate controls. IC50 values are determined using GraphPad Prism 5 software. […]
QUANTITY KIND: IC50 (nM)
State just the number; it will be interpreted in nM.

C=CC(=O)Nc1cccc(-c2nc(Nc3cccc(N4CCOCC4)c3)nc3[nH]cc(Cl)c23)c1 : 96
C=CC(=O)Nc1cccc(-c2nc(Nc3cccc(N4CCOCC4)c3)nc3[nH]nc(Cl)c23)c1 : 96
C=CC(=O)Nc1cccc(-c2nc(Nc3cccc(N4CCOCC4)c3)ncc2Cl)c1 : 70

// switching to the query compound
Identify measured IC50 associated with `C=CC(=O)Nc1cccc(-c2nc(Nc3cccc(N4CCN(C)CC4)c3)nc3[nH]ncc23)c1`
9

Numbers sourced from patent US20150252048A1.
